Below, each of the binders is paired with its reported optical density value.
- targetEntity: Mouse ACVR2A (mouse, UniProt P27038 20-135, limits assumed); further: test concentration or dose not given here
- Sequence (P27038 20-135 limits assumed): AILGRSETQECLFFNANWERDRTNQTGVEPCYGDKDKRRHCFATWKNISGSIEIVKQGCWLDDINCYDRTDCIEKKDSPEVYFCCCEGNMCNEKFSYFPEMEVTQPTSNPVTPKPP
- methodSummary: ELISA
Please respond with the number in OD and leave the unit unwritten.

Worked examples follow.
{"binder": "368_D12 (antibody, V domains shown, VH/VL only) VH: EVQLLESGGGLVQPGGSLRLSCAASGFTFSSYGMNWVRQAPGKGLEWVSSINYNGGYTSYADSVKGRFTISRDNSKNTLYLQMNSLRAEDTAVYYCARGATWHDTHLDYWGQGTLVTVSS VL: DIQMTQSPSSLSASVGDRVTITCRASQSILSYVNWYQQKPGKAPKLVIYAATSRASGVPSRFSGSGSGTDFTLTISSLQPEDFATYYCQQSYNNPLTFGGGTKVEIK", "unit": "OD", "optical density": 2.28}
{"binder": "366_H06 (antibody, V domains shown, VH/VL only) VH: EVQLLESGGGLVQPGGSLRLSCAASGFTFSSYGMNWVRQAPGKGLEWVSSINYNGGYTGYADSVKGRFTISRDNSKNTLYLQMNSLRAEDTAVYYCARSANWHDTALDYWGQGTLVTVSS VL: DIQMTQSPSSLSASVGDRVTITCRASQSILSYLNWYQQKPGKAPKLLIYATTSRASGVPSRFSGSGSGTDFTLTISSLQPEDFATYYCQQSYDTPLTFGGGTKVEIK", "unit": "OD", "optical density": 2.59}

Next item in the queue.
Record summary for 367_B07 (antibody, V domains shown, VH/VL only) VH: EVQLLESGGGLVQPGGSLRLSCAASGFTFSDYSMNWVRQAPGKGLEWVAGINYNSGYTGYADSVKGRFTISRDNSKNTLYLQMNSLRAEDTAVYYCARSANWHDTHLDYWGQGTLVTVSS VL: DIQMTQSPSSLSASVGDRVTITCRASQSIISYVNWYQQKPGKAPKLLIYAATSLASGVPSRFSGSGSGTDFTLTISSLQPEDFATYYCQQSYNLPLTFGGGTKVEIK : reported optical density = 1.49
